MEASURED_ON: Androgen Receptor (AR) (Homo sapiens, UniProt P10275)
Construct: endogenous in cells; host or cells: VCaP
ASSAY_COMMENT: AR immunofluorescence staining, high content imager, VCaP cells
Assay type: cell-based
MEASUREMENT_PARAMETERS: AR degradation by immunofluorescence
REPORTED_METRIC: DC50

• Cc1cc(O[C@H]2C(C)(C)[C@H](NC(=O)c3ccc(N4CCO[C@@H](CN5CCN(c6ccc(C(=O)N[C@@H]7CCC(=O)NC7=O)c(F)c6)CC5)C4)cc3)C2(C)C)cc(C)c1C#N [Compound 75] = 1 to 10 nM
• COc1cc(O[C@H]2C(C)(C)[C@H](NC(=O)c3ccc(N4CCC(CN5CCN(c6ccc(C(=O)NC7CCC(=O)NC7=O)c(F)c6)CC5)CC4)cc3)C2(C)C)ccc1C#N (some centres unmarked) [Compound 1] = < 1 nM
• N#Cc1ccc(O[C@H]2CC[C@H](NC(=O)c3ccc(N4CCC(CN5CCN(c6ccc(C(=O)NC7CCC(=O)NC7=O)cc6)CC5)CC4)nn3)CC2)cc1Cl (some centres unmarked) [Compound 23] = < 1 nM
• COc1cc(C(=O)NC2CCC(=O)NC2=O)ccc1O[C@H]1C[C@H](N(CC2CCN(c3ccc(C(=O)N[C@H]4C(C)(C)[C@H](Oc5cc(C)c(C#N)c(C)c5)C4(C)C)cc3)CC2)C(C)C)C1 (some centres unmarked) [Compound 66] = < 1 nM
• CC1(C)[C@H](NC(=O)c2ccc(N3CCC(CN4CCN(c5ccc(C(=O)NC6CCC(=O)NC6=O)c(F)c5)CC4)CC3)nn2)C(C)(C)[C@H]1Oc1ccc(C#N)c(Cl)c1 (some centres unmarked) [Compound 17] = < 1 nM

====

Listing of recorded DC50 by entry.
MEASURED_ON: androgen receptor (Homo sapiens, UniProt P10275)
Construct: endogenous in cells; host or cells: VCaP
Sequence (P10275 1-920): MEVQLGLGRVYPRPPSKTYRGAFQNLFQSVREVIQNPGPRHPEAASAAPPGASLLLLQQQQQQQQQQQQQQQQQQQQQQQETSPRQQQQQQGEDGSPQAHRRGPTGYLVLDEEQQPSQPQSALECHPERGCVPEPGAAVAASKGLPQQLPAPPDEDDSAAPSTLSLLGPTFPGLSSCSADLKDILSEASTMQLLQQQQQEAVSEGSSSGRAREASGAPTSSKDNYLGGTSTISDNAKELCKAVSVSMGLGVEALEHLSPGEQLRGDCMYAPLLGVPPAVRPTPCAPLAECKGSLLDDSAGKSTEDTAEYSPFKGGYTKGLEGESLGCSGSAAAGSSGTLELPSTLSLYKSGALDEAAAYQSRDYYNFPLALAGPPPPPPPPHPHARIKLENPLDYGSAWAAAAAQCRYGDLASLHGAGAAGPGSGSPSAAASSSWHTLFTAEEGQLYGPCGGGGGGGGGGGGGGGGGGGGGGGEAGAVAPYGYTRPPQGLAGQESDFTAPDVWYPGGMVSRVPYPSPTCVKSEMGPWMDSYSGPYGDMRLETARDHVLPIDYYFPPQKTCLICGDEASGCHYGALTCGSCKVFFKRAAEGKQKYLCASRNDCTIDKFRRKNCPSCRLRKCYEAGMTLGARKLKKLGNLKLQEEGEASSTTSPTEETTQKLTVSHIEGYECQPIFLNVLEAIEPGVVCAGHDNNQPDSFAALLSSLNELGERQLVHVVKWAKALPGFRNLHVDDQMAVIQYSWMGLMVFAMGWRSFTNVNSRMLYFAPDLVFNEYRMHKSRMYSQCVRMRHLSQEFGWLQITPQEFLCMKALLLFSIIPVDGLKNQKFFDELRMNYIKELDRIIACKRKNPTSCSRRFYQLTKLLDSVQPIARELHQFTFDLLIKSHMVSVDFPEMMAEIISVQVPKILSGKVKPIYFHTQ
ASSAY_COMMENT: AR ELISA assay (PathScan AR Sandwich ELISA), VCaP cells
Assay type: cell-based
MEASUREMENT_PARAMETERS: drug treatment 5 hours
REPORTED_METRIC: DC50

* CC1(C)[C@H](NC(=O)c2ccc(N3CCC(CN4CCN(c5ccc(C(=O)NC6CCC(=O)NC6=O)cc5)CC4)CC3)cc2)C(C)(C)[C@H]1Oc1ccc(C#N)c(Cl)c1 (some centres unmarked) | < 1 nM
* Cc1cc(O[C@H]2C(C)(C)[C@H](NC(=O)c3cnc(N4CCC(CN(C(C)C)[C@H]5C[C@H](Oc6cccc(C(=O)NC7CCC(=O)NC7=O)c6)C5)CC4)nc3)C2(C)C)cc(C)c1C#N (some centres unmarked) | < 1 nM
* Cc1cc(O[C@H]2C(C)(C)[C@H](NC(=O)c3ccc(N4CCC(CN5CCN(c6ccnc(C(=O)NC7CCC(=O)NC7=O)c6)CC5)CC4)cc3)C2(C)C)cc(C)c1C#N (some centres unmarked) | < 1 nM
* Cc1cc(O[C@H]2C(C)(C)[C@H](NC(=O)c3cnc(N4CCC(CN(C(C)C)[C@H]5C[C@H](Oc6ccc(C(=O)NC7CCC(=O)NC7=O)cc6)C5)CC4)nc3)C2(C)C)cc(C)c1C#N (some centres unmarked) | < 1 nM
* CC(C)N(CC1CCN(c2cnc(C(=O)N[C@H]3C(C)(C)[C@H](Oc4ccc(C#N)c(Cl)c4)C3(C)C)cn2)CC1)[C@H]1C[C@H](Oc2cccc(C(=O)NC3CCC(=O)NC3=O)c2)C1 (some centres unmarked) | ≥ 100 nM

====

MEASURED_ON: Androgen Receptor (AR) (Homo sapiens)
Construct: endogenous in cells; host or cells: VCaP
Sequence (P10275 1-920): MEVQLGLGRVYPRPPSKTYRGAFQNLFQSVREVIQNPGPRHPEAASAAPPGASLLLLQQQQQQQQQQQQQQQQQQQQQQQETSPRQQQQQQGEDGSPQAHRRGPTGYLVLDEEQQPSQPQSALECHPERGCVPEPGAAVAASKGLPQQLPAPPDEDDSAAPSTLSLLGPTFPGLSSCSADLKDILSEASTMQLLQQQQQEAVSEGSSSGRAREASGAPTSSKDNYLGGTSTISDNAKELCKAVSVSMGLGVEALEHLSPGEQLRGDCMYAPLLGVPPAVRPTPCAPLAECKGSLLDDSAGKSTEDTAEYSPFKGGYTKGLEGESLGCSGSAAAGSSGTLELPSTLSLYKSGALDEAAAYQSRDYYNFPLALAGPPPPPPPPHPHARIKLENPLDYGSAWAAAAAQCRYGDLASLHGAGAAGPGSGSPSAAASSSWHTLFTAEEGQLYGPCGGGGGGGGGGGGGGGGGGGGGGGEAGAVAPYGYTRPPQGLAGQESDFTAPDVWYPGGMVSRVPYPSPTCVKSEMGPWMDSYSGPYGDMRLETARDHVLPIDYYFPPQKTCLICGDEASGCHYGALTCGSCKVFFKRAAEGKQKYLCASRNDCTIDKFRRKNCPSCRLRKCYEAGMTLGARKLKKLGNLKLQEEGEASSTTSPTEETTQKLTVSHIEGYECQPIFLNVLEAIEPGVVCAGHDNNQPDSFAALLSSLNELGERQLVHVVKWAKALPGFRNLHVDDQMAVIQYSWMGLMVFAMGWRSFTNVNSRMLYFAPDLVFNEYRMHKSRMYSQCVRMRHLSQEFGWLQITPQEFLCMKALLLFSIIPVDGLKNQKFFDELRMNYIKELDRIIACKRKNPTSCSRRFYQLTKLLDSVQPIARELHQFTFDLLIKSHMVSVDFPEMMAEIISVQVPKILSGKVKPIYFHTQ
ASSAY_COMMENT: AR immunofluorescence staining, high content imager, VCaP cells
Assay type: cell-based
MEASUREMENT_PARAMETERS: AR degradation by immunofluorescence
REPORTED_METRIC: DC50

• COc1cc(O[C@H]2C[C@H](N3CCOC4(CCN(c5ccc(C(=O)N[C@H]6C(C)(C)[C@H](Oc7cc(C)c(C#N)c(C)c7)C6(C)C)cc5)CC4)C3)C2)ccc1C(=O)N[C@H]1CCC(=O)NC1=O = < 1 nM
• CC(C)N(CC1CCN(c2cnc(C(=O)N[C@H]3CC[C@H](Oc4ccc(C#N)c(Cl)c4)CC3)cn2)CC1)[C@H]1C[C@H](Oc2ccc(C(=O)NC3CCC(=O)NC3=O)cc2)C1 (some centres unmarked) = < 1 nM
• CCN(C(=O)c1ccc(N2CCN(CC3CCN(c4ccc(C(=O)N[C@H]5CC[C@H](Oc6ccc(C#N)c(Cl)c6)CC5)nn4)CC3)CC2)cc1)C1CCC(=O)NC1=O (some centres unmarked) = ≥ 100 nM
• CC1(C)[C@H](NC(=O)c2ccc(N3CCC(CN4CCN(c5ccc(C(=O)NC6CCC(=O)NC6=O)c(F)c5)CC4)CC3)cc2)C(C)(C)[C@H]1Oc1ccc(C#N)c(Cl)c1 (some centres unmarked) = < 1 nM
• COc1cc(O[C@H]2C(C)(C)[C@H](NC(=O)c3ccc(N4CCC(CN5CCN(c6ccc(C(=O)N[C@H]7CCC(=O)NC7=O)c(F)c6)CC5)CC4)cc3)C2(C)C)ccc1C#N = < 1 nM
